Hey, just so you know, these numbers are from patent US20220024983A1.

TEST TARGET: T1, human IL-17A dimer (human, UniProt Q16552 24-155)
T1 construct: also called hIL17-A
T1 sequence (looked up): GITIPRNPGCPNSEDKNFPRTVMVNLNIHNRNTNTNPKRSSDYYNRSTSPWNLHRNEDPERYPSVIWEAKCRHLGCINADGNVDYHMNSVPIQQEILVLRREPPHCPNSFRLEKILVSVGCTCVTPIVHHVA
TEST DETAILS: binding assay, method analogous to WO 2011/141823; Mean column, n=2

BINDER: ACPQDLELCTFLFGDCAXXXXXXK (Ci, Cii and Ciii cyclised with TBMB; six sarcosines (written X) after the C-terminal Ala; fluorescein (Fl) on the C-terminal Lys) [BCY2310]
Kd, nM: 26.6
